# Test Name: Selectivity index, ratio of GI50 for human THP1 cells to MIC for dormant phase Mycobacterium tuberculosis H37Ra ATCC 25177
# Type: toxicity, cell-based, THP-1
# Experimental Conditions: read-out: Selectivity Index
Lab note: cut-off is 1. Strictly less in selectivity ratio is yes. Exactly 1 or more is no.

Enquiry: A record lists `O=[N+]([O-])c1cccc(Cn2cc(COc3ccc(Cl)cc3)nn2)c1` . Is its selectivity ratio below 1?
Return: no

Enquiry: Regarding `Cc1ccc(OCc2cn(Cc3ccc([N+](=O)[O-])cc3)nn2)cc1` , kindly confirm whether its selectivity ratio is beneath 1.
Return: yes

Enquiry: Decide: selectivity ratio of `O=[N+]([O-])c1ccc(Cn2cc(COc3ccccc3)nn2)cc1` strictly below 1?
Return: no

Enquiry: Hello, is selectivity ratio of the following molecule strictly smaller than 1? `CC(=O)O[C@H]1C(=O)[C@@]2(C)[C@H]([C@H](OC(=O)c3ccccc3)[C@]3(O)C[C@H](OC(=O)[C@H](O)[C@@H](NC(=O)c4ccccc4)c4ccccc4)C(C)=C1C3(C)C)[C@]1(OC(C)=O)CO[C@@H]1C[C@@H]2O`
Return: no

Enquiry: Is 1 strictly greater than the molecule's reported selectivity ratio? molecule: `Cc1cc(OCc2cn(Cc3ccc(Cl)cc3)nn2)ccc1Cl`
Return: no

Further cases:
Enquiry: Problem: For the molecule `Clc1ccc(Cn2cc(COc3ccc(Cl)cc3)nn2)cc1` , is selectivity ratio under 1?
Return: no

Enquiry: For this molecule, is selectivity ratio lower than 1? `Clc1ccc(OCc2cn(Cc3cccc(Cl)c3)nn2)cc1`
Return: yes

Enquiry: Hi there! Is selectivity ratio for `Clc1ccc(Cn2cc(COc3ccccc3)nn2)cc1` below 1, do you know?
Return: no

---

Examples of compounds with documented selectivity ratio follow.
# Test Name: Selectivity index, ratio of GI50 for human PANC1 cells to MIC for dormant phase Mycobacterium tuberculosis H37Ra ATCC 25177
# Assay type: toxicity, cell-based, PANC-1
# Experimental Conditions: read-out: Selectivity Index

Guide cases for selectivity ratio, answers given:
Enquiry: Which selectivity ratio is listed for `Brc1ccc(Cn2cc(COc3ccccc3)nn2)cc1` ?
Return: > 3.5

Enquiry: Using the record for `Clc1cccc(Cn2cc(COc3ccccc3)nn2)c1` , report its selectivity ratio.
Return: > 3.6

Enquiry: Look up selectivity ratio: `O=[N+]([O-])c1ccc(Cn2cc(COc3ccccc3)nn2)cc1`
Return: > 3.6

Enquiry: Give its selectivity ratio value. Item: `Clc1ccc(Cn2cc(COc3ccc(Cl)cc3)nn2)cc1`
Return: > 12.2

Enquiry: Suppose we examine the compound `Cc1cc(OCc2cn(Cc3ccc([N+](=O)[O-])cc3)nn2)ccc1Cl` ; what selectivity ratio value has been reported?
Return: > 3.6

More entries:
Enquiry: Bench note: what selectivity ratio did `Clc1ccc(Cn2cc(COc3c(Cl)cc(Cl)cc3Cl)nn2)cc1` show?
Return: > 12.9

Enquiry: Please report the recorded selectivity ratio for `Clc1ccc(Cn2cc(COc3ccccc3)nn2)cc1` .
Return: > 3.3

Enquiry: Item `Cc1ccc(OCc2cn(Cc3ccc([N+](=O)[O-])cc3)nn2)cc1` has what recorded selectivity ratio?
Return: > 3.3

Enquiry: Tell me the measured selectivity ratio of `Clc1ccc(OCc2cn(Cc3cccc(Cl)c3)nn2)cc1` , please.
Return: > 3.9
